# measured_on: DRB5*0101 (Homo sapiens, UniProt P01903+Q30154)
# measurement_protocol: biochemical
# condition_info: Binding affinity DRB5 *0101
No end group written: not given here.
Listed sequences paired with reported log10 of IC50
parameter: log10 of IC50 (log10 of the value in µM)

* LKEFLKGTPKKNCIL [Peptide 89.0086] | 0.67
* CIHSTATDLRTLQQM [Peptide 1543.45] | 0.39
* SWGMVMLMLVRFKCA [Peptide 89.0044] | 0.70
* LIRMECAIMYTARQM [Peptide 90.0022] | 0.81
* RLTVAKLMSNLLSIP [Peptide 89.0065] | -0.30
* RLNVCQDKILTHYEN [Peptide 90.0160] | 0.21
* WKLIRMECALLYTAK [Peptide 90.0199] | 0.56
* ILLYGAANTGKSLFG [Peptide 89.0018] | 0.20
* DGVSHAQLPARRAEP [Peptide 1543.18] | -0.41
* GHQVVPPMAVSKAKA [Peptide 90.0011] | 0.73
* GCWRQTSREPRESTV [Peptide 1543.46] | 0.63
* QMFLGTVKIPPTVQI [Peptide 89.0188] | 0.65

---

# measured_on: HLA-A11 (A*1101) (Homo sapiens, UniProt P04439, A114D/D185E/E176A/F33Y/L180Q/S129P/T187R)
# measurement_protocol: biochemical
# Type: binding
No end group written: not given here.
Could you please mark yes (1) for values of IC50 below 100 nM and no (0) for values at or above it?

• GVSIEWRKRR [Peptide 9017.0221] = no (0)
• GVEFISFLR [Peptide 1587.55] = no (0)
• IVFIEYRKIR [Peptide 9017.0245] = no (0)
• NSNAAAFLK [Peptide 88.0342] = yes (1)
• AQVLHLLKRK [Peptide 1587.52] = no (0)
• NTMHYTNWK [Peptide 1589.16] = yes (1)
• SQIQYWQLIR [Peptide 88.0199] = yes (1)
• RINTWKSLVK [Peptide 9017.0215] = yes (1)
• ITVSAELPR [Peptide 1556.18] = no (0)
• YVMAGVGSPK [Peptide 9012.0253] = yes (1)
• GTRQARKNR [Peptide 9017.0071] = no (0)
• RIGILRQRR [Peptide 9017.0113] = no (0)
• LALTALIKPK [Peptide 9017.0227] = yes (1)
• ALTALITPK [Peptide 9017.0099] = yes (1)
• LQHASTSTPK [Peptide 88.0224] = yes (1)
• KIKPPLPSVR [Peptide 9017.0234] = no (0)
• KFYSKISEYR [Peptide 78.0081] = no (0)
• ALFTAQEAK [Peptide 88.0323] = yes (1)
• LNKMFCQLAR [Peptide 1556.49] = no (0)
• TTTYSPALNK [Peptide 1556.41] = yes (1)
• FTDLTIVYR [Peptide 78.0313] = no (0)
• QTRSLTEILK [Peptide 9012.0217] = yes (1)
• AILGHIVIPR [Peptide 9017.0224] = yes (1)
• EQNEALELK [Peptide 1556.69] = no (0)
• LTALITPKK [Peptide 9017.0101] = yes (1)
• VSIEWRQRR [Peptide 9017.0089] = yes (1)
• KQSRAAKRR [Peptide 88.0325] = no (0)
• GQVDYYGLYY [Peptide 1589.02] = yes (1)
• NVAPIVHLK [Peptide 1589.21] = no (0)
